Target: human D4 receptor (D4.2 sub-type) (Homo sapiens, UniProt P21917, DEL265-296)
Construct: expressed in transfected cells; host or cells: HEK 298 [sic] (human embryonic kidney) cells
Sequence (P21917 with tags, fused parts or gaps DEL265-296): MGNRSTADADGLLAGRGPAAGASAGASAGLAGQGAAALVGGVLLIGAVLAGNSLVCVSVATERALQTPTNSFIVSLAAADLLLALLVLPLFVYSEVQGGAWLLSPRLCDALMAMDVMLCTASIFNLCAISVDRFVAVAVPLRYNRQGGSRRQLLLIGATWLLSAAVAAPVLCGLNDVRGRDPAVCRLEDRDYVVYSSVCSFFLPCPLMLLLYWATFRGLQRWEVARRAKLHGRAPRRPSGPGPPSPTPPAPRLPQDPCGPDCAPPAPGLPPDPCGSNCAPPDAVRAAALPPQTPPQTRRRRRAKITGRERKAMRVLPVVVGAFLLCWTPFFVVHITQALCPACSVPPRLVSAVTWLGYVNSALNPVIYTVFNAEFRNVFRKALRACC
Assay: Dopamine D4 Receptor Binding Assay (3H-spiperone displacement)
Conditions: 3H-spiperone 0.25 nM; cells stably transfected with human D4.2; 90 minutes, room temperature, pH 7.4
Experimental: The cells were then centrifuged in a Sorval centrifuge for 10 minutes, 5000 rpm (GS3 rotor) and the pellets quickly frozen in liquid nitrogen and stored at -80° C. until used in binding assay. When used in the assay, cells were thawed on ice for 20 minutes and then 10 mL of incubation buffer (50 mM Tris, 1 mM EDTA, 4 mM MgCl2, 5 mM KCl, 1.5 mM CaCl2, 120 mM NaCl, pH7.4) was added. […] Concentration of receptor protein was determined using the Pierce BCA assay. […]
QUANTITY NAME: Ki (nM)

> print(dat)
                                   compound                               measured.on  units.symbol  observed.result
1  CC1CN(C2=Nc3ccccc3Oc3ccccc32)C(C)CN1 (stereo not shown)  human D4 receptor (D4.2 sub-type) (Homo sapiens, UniProt P21917, DEL265-296)            nM             4540
2  CC1CN(C2=Nc3cc(Cl)ccc3Oc3ccccc32)CC(C)N1 (stereo not shown)  human D4 receptor (D4.2 sub-type) (Homo sapiens, UniProt P21917, DEL265-296)            nM              215
3  CC1CN(C2=Nc3ccccc3Oc3ccccc32)CC(C)N1 (stereo not shown)  human D4 receptor (D4.2 sub-type) (Homo sapiens, UniProt P21917, DEL265-296)            nM             1100
4  CC1CN(C2=Nc3ccccc3Nc3cc(Cl)ccc32)CC(C)N1 (stereo not shown)  human D4 receptor (D4.2 sub-type) (Homo sapiens, UniProt P21917, DEL265-296)            nM             2750
